Target: N-acetyl-β-D-glucosaminidase (Bovine kidney)
Assay: Glycosidase inhibition: N-acetyl-β-D-glucosaminidase (Bovine kidney);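 further: enzyme activity followed by cleavage of the matching p-nitrophenyl glycoside (5 mM) in phosphate buffer set to the enzyme's optimal pH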
Type: biochemical
Details: read-out: IC50, N-acetyl-β-D-glucosaminidase (Bovine kidney)
endpoint_name: IC50 (µM)
Quick note: give the figure in µM, leave out the unit.

Item O=C(O)CN1C[C@H](O)[C@@H](O)[C@H](O)[C@H]1CO has what recorded IC50? 10.4

Item O=C(O)CCN1C[C@H](O)[C@@H](O)[C@H](O)[C@H]1CO has what recorded IC50? 32.2

Item O=C(O)CN1C[C@@H](O)[C@H](O)[C@H]1CO has what recorded IC50? 39.6

----------
endpoint_name: IC50

What measured IC50 is associated with O=C(O)[C@H]1NC[C@H](O)[C@@H](O)[C@@H]1O on UniProt P23739? > 1000 µM

----------
Test system: β-D-galactosidase Bovine liver
Experiment: Glycosidase inhibition: β-D-galactosidase Bovine liver
Format: biochemical
Details: compounds tested at 0.8 mM
endpoint_name: % inhibition, β-D-galactosidase Bovine liver (%)
Quick note: give the figure in %, leave out the unit.

Item O=C(O)CN1[C@H](CO)[C@@H](O)[C@H](O)[C@H]1CO has what recorded % inhibition, β-D-galactosidase Bovine liver? 60

Item OCCN1C[C@H](O)[C@@H](O)[C@H](O)[C@H]1CO [Miglitol, reference compound] has what recorded % inhibition, β-D-galactosidase Bovine liver? 87

----------
Biological target: rabbit intestinal maltase
Test: Rabbit disaccharidase inhibition assay: maltase
Details: NI: no inhibition at 0.8 mM
endpoint_name: pIC50
Scale note: pIC50 = -log10(concentration in M).

Item O=C(O)CCN1C[C@H](O)[C@@H](O)[C@H](O)[C@H]1CO has what recorded pIC50? 4.72

Item CCCCN1C[C@H](O)[C@@H](O)[C@H](O)[C@H]1CO [Zavesca, N-butyl-DNJ, reference compound] has what recorded pIC50? 6.01

Item OC[C@H]1NC[C@H](O)[C@@H](O)[C@@H]1O [DNJ, 1-deoxynojirimycin, reference compound] has what recorded pIC50? 6.74

----------
Target: α-D-glucosidase (Yeast) (Saccharomyces cerevisiae, UniProt P53341)
Construct: purchased Sigma
Sequence (P53341 whole entry): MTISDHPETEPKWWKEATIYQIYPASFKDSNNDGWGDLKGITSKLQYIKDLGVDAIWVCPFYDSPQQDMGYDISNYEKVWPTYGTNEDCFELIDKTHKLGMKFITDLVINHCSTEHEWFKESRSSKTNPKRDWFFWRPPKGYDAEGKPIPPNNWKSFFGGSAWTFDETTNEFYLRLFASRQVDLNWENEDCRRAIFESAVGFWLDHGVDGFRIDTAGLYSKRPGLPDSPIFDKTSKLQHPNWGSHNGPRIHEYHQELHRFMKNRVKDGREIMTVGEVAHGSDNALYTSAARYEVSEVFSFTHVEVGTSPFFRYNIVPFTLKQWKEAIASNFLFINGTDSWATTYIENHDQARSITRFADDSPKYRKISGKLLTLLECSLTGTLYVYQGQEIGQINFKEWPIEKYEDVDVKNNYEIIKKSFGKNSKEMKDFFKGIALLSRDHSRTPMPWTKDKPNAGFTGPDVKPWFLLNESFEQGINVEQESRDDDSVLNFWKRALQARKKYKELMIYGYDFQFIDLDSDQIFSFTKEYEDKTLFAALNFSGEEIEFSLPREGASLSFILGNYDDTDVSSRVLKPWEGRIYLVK
Experiment: Glycosidase inhibition: α-D-glucosidase (Yeast)
Format: biochemical
Conditions: compounds tested at 0.8 mM
Experimental: The results tabulated below were obtained using commercially available glycosidases and p-nitrophenyl-substrates using standard methods described for example by Watson et al (1997) Phytochemistry 46 255-259. […] Amyloglucosidase activity was measured using amylopectin (0.1%) (Merck) mixed with sodium phosphate buffer, pH 4.5 in a glass bottle, and healed in a boiling water bath for 20 minutes to dissolve with released glucose measured using ‘Trinder’ glucose detection solution (Sigma). […]
endpoint_name: inhibition at 800 µM

Item O=C(O)CN1C[C@H](O)[C@@H](O)[C@H](O)[C@H]1CO [Compound G6] has what recorded inhibition at 800 µM? < 50%

Item CCCCOC(=O)[C@@H]1[C@@H](O)[C@H](O)[C@@H](O)CN1CCCC [Compound T2] has what recorded inhibition at 800 µM? < 50%

Item O=C(O)[C@H]1NC[C@H](O)[C@@H](O)[C@@H]1O [Compound G2] has what recorded inhibition at 800 µM? < 10%

Item O=C(O)CN1[C@H](CO)[C@@H](O)[C@H](O)[C@H]1CO [Compound S2] has what recorded inhibition at 800 µM? < 50%

Item O=C(O)[C@@H]1[C@@H](O)[C@H](O)[C@@H](O)CN1CCO [Compound T3] has what recorded inhibition at 800 µM? < 50%

----------
Molecular target: α-D-glucosidase (Rice) (Oryza sativa subsp. japonica, UniProt Q653V7)
Construct: purchased Sigma
Sequence (Q653V7 34-885): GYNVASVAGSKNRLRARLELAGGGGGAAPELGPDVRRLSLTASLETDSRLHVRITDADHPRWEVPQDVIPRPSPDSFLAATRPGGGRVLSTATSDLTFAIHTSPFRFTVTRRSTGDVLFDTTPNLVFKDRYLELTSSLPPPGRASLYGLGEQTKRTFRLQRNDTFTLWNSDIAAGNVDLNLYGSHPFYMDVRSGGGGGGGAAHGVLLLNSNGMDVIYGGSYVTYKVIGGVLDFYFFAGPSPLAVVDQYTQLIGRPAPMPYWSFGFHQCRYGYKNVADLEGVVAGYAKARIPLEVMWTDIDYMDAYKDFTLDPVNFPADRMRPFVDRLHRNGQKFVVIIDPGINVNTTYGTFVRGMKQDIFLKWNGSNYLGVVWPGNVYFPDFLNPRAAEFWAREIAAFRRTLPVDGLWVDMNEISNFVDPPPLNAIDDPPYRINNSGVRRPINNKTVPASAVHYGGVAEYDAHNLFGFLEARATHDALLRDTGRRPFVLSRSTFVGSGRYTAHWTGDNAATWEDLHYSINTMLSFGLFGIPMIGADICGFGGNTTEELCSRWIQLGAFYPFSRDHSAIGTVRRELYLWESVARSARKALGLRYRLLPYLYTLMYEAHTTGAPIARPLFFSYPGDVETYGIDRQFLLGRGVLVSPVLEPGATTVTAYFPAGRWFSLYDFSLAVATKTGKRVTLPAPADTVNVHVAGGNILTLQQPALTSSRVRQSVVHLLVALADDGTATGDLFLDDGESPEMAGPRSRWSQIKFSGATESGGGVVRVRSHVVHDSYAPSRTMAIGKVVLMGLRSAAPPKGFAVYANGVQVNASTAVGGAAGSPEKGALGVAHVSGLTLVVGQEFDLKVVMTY
Assay: Glycosidase inhibition: α-D-glucosidase (Rice)
Type: biochemical
Settings: compounds tested at 0.8 mM
endpoint_name: inhibition at 800 µM (%)
Quick note: give the figure in %, leave out the unit.

Item O=C(O)CN1C[C@H](O)[C@@H](O)[C@H](O)[C@H]1CO has what recorded inhibition at 800 µM? 99.7

Item O=C(O)[C@H]1NC[C@H](O)[C@@H](O)[C@@H]1O has what recorded inhibition at 800 µM? 55

Item OCCN1C[C@H](O)[C@@H](O)[C@H](O)[C@H]1CO [Miglitol, reference compound] has what recorded inhibition at 800 µM? 100

Item O=C(O)CCN1C[C@H](O)[C@@H](O)[C@H](O)[C@H]1CO has what recorded inhibition at 800 µM? 99.1

Item O=C(O)[C@@H]1[C@@H](O)[C@H](O)[C@@H](O)CN1CCO has what recorded inhibition at 800 µM? 67.2

----------
endpoint_name: IC50

What measured IC50 is associated with O=C(O)[C@H]1NC[C@H](O)[C@@H](O)[C@@H]1O on rat intestinal cellobiase (Rattus norvegicus, UniProt Q02401)? > 1000 µM

----------
Biological target: UniProtKB A0ACH1E9U3
Sequence (A0ACH1E9U3 entry or part of it): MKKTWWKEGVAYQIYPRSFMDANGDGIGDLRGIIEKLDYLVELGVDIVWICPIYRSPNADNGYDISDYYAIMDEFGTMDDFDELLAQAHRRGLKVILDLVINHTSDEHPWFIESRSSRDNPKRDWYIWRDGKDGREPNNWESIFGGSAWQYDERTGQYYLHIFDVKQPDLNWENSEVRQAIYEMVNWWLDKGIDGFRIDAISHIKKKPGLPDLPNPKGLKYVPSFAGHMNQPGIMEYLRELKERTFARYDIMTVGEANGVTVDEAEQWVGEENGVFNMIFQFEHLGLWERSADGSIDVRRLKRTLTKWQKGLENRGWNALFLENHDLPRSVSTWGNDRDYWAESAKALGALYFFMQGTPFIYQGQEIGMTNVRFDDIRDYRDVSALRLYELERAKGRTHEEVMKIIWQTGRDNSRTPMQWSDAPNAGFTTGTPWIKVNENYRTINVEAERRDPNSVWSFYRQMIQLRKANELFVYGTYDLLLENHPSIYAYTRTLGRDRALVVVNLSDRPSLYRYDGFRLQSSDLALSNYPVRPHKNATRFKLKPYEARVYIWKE
Assay: Glycosidase inhibition: α-D-glucosidase (Bacillus)
Type: biochemical
Settings: compounds tested at 0.8 mM
endpoint_name: inhibition at 800 µM (%)
Quick note: give the figure in %, leave out the unit.

Item OC[C@H]1NC[C@H](O)[C@@H](O)[C@@H]1O [DNJ, 1-deoxynojirimycin, reference compound] has what recorded inhibition at 800 µM? 100

Item O=C(O)CN1[C@H](CO)[C@@H](O)[C@H](O)[C@H]1CO has what recorded inhibition at 800 µM? 92.7

Item O=C(O)[C@H]1NC[C@H](O)[C@@H](O)[C@@H]1O has what recorded inhibition at 800 µM? 49

Item OCCN1C[C@H](O)[C@@H](O)[C@H](O)[C@H]1CO [Miglitol, reference compound] has what recorded inhibition at 800 µM? 83

----------
Target: α-D-glucosidase (Yeast) (Saccharomyces cerevisiae, UniProt P53341)
Construct: purchased Sigma
Assay: Glycosidase inhibition: α-D-glucosidase (Yeast)
Assay type: biochemical
Settings: compounds tested at 0.8 mM
I'd be grateful if you could share measured inhibition at 800 µM for these entries.

Item O=C(O)CN1C[C@@H](O)[C@H](O)[C@H]1CO has what recorded inhibition at 800 µM? < 50%

Item O=C(O)CCN1C[C@H](O)[C@@H](O)[C@H](O)[C@H]1CO has what recorded inhibition at 800 µM? < 50%

Item OCCN1C[C@H](O)[C@@H](O)[C@H](O)[C@H]1CO [Miglitol, reference compound] has what recorded inhibition at 800 µM? < 5%

Item OC[C@H]1NC[C@H](O)[C@@H](O)[C@@H]1O [DNJ, 1-deoxynojirimycin, reference compound] has what recorded inhibition at 800 µM? 36%

----------
Molecular target: rat intestinal maltase
Experiment: Rat intestinal glycosidases: maltase
Format: biochemical
Conditions: rat intestinal brush border membranes
pIC50: −log10 of the molar value.
endpoint_name: pIC50

Item O=C(O)[C@H]1NC[C@H](O)[C@@H](O)[C@@H]1O has what recorded pIC50? < 3.00

----------
Molecular target: N-acetyl-β-D-glucosaminidase (A. oryzae) (Aspergillus oryzae)
Construct: purchased Sigma
Sequence (Q8J2T0 97-600): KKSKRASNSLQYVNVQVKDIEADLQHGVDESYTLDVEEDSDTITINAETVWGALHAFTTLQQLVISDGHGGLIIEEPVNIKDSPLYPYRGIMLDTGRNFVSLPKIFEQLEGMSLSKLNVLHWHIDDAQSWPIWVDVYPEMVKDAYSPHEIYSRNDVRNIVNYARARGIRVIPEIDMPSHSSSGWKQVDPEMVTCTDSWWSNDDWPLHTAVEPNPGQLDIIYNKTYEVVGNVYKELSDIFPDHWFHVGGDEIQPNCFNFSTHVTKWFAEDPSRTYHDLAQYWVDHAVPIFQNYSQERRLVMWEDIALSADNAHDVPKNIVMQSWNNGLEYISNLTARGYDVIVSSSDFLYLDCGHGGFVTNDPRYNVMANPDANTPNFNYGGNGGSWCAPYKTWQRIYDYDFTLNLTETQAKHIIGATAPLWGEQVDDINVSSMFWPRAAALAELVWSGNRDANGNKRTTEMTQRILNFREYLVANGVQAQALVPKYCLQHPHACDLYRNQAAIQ
Assay: Glycosidase inhibition: N-acetyl-β-D-glucosaminidase (A. oryzae)
Format: biochemical
Conditions: compounds tested at 0.8 mM
Protocol: The results tabulated below were obtained using commercially available glycosidases and p-nitrophenyl-substrates using standard methods described for example by Watson et al (1997) Phytochemistry 46 255-259. […] Amyloglucosidase activity was measured using amylopectin (0.1%) (Merck) mixed with sodium phosphate buffer, pH 4.5 in a glass bottle, and healed in a boiling water bath for 20 minutes to dissolve with released glucose measured using ‘Trinder’ glucose detection solution (Sigma). […]
endpoint_name: inhibition at 800 µM

Item CCCCOC(=O)[C@@H]1[C@@H](O)[C@H](O)[C@@H](O)CN1CCCC has what recorded inhibition at 800 µM? < 50%

Item O=C(O)[C@@H]1[C@@H](O)[C@H](O)[C@@H](O)CN1CCO has what recorded inhibition at 800 µM? < 50%

Item O=C(O)CN1C[C@H](O)[C@@H](O)[C@H](O)[C@H]1CO has what recorded inhibition at 800 µM? < 50%

Item OC[C@H]1NC[C@H](O)[C@@H](O)[C@@H]1O [DNJ, 1-deoxynojirimycin, reference compound] has what recorded inhibition at 800 µM? < 10%

Item O=C(O)CCN1C[C@H](O)[C@@H](O)[C@H](O)[C@H]1CO has what recorded inhibition at 800 µM? < 50%

Item O=C(O)CN1C[C@@H](O)[C@H](O)[C@H]1CO has what recorded inhibition at 800 µM? < 50%

Item O=C(O)CN1[C@H](CO)[C@@H](O)[C@H](O)[C@H]1CO has what recorded inhibition at 800 µM? < 50%

Item OCCN1C[C@H](O)[C@@H](O)[C@H](O)[C@H]1CO [Miglitol, reference compound] has what recorded inhibition at 800 µM? < 5%

Item O=C(O)[C@H]1NC[C@H](O)[C@@H](O)[C@@H]1O has what recorded inhibition at 800 µM? < 10%

----------
Biological target: α-D-galactosidase Green coffee bean (Coffea arabica, UniProt Q42656)
Construct: α-D-galactosidase (Green coffee beans); purchased Sigma; host or cells: green coffee beans
Sequence (Q42656 16-378): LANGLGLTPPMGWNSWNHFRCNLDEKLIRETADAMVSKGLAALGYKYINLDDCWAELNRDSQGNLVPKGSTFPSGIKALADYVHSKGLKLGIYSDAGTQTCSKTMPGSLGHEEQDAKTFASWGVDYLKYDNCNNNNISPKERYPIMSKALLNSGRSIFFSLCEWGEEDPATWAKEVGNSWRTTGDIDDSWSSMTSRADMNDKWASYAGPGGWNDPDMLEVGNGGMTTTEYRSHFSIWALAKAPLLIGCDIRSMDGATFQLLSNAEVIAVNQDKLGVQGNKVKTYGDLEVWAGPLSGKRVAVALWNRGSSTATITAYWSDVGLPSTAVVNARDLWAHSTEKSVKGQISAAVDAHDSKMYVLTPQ
Assay: Glycosidase inhibition: α-D-galactosidase Green coffee bean
Assay type: biochemical
Details: compounds tested at 0.8 mM
I'd be grateful if you could share measured inhibition at 800 µM for these entries.

Item CCCCOC(=O)[C@@H]1[C@@H](O)[C@H](O)[C@@H](O)CN1CCCC has what recorded inhibition at 800 µM? < 50%

Item OC[C@H]1NC[C@H](O)[C@@H](O)[C@@H]1O [DNJ, 1-deoxynojirimycin, reference compound] has what recorded inhibition at 800 µM? < 10%

Item O=C(O)CN1C[C@@H](O)[C@H](O)[C@H]1CO has what recorded inhibition at 800 µM? < 50%

Item O=C(O)CN1[C@H](CO)[C@@H](O)[C@H](O)[C@H]1CO has what recorded inhibition at 800 µM? < 50%

Item O=C(O)CN1C[C@H](O)[C@@H](O)[C@H](O)[C@H]1CO has what recorded inhibition at 800 µM? < 50%

Item O=C(O)[C@@H]1[C@@H](O)[C@H](O)[C@@H](O)CN1CCO has what recorded inhibition at 800 µM? < 50%

Item OCCN1C[C@H](O)[C@@H](O)[C@H](O)[C@H]1CO [Miglitol, reference compound] has what recorded inhibition at 800 µM? 19%

Item O=C(O)[C@H]1NC[C@H](O)[C@@H](O)[C@@H]1O has what recorded inhibition at 800 µM? < 10%

Item O=C(O)CCN1C[C@H](O)[C@@H](O)[C@H](O)[C@H]1CO has what recorded inhibition at 800 µM? < 50%

Source listed as patent US20110015226A1.
